Just for reference, PubChem BioAssay (NCI) is where these values come from.

- Tested on: A498 renal
- Test Protocol: NCI tumour cell line growth inhibition, 48 h

{"Smiles Representation": "Cc1ccc(-c2c(C#N)c(N)[nH]c(=S)c2C#N)cc1", "TGI": "> 100 µM"}
{"Smiles Representation": "N#CCCN(CCNc1ccccc1)C(=O)Nc1ccc(NC(=O)N(CCC#N)CCNc2ccccc2)cc1", "TGI": "> 100 µM"}
{"Smiles Representation": "O=C(Cc1ccc(OCc2cccc(Cl)c2)cc1)NO", "TGI": "27 µM"}
{"Smiles Representation": "Cc1ccc(Nc2nc3c(s2)C(=O)c2ccccc2C3=O)cc1", "TGI": "30.9 µM"}
{"Smiles Representation": "COc1cc(/C=C/c2cccnc2)cc(OC)c1OC", "TGI": "> 100 µM"}
